Reference for the values: patent US7754689B2

Molecular target: T1, BMP-12 (UniProt Q7Z4P5 322-450, limits assumed)
T1 construct: also called BMP12/GDF7
T1 sequence (looked up): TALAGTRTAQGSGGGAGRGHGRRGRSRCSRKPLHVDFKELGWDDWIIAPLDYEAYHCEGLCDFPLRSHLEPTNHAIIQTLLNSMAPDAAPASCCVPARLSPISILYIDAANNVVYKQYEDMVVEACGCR
Assay: peptide resin, filter plate; load 3: 25 mM Na Acetate pH 5.0
No end group written: not given here.
Criterion: Flow-through K meeting or surpassing 9. Met: yes (1). Not met: no (0).

Hello, I need to know if Ac-LYVSDVGWNDWIVK (not fully specified (residue 3); printed as Ac-LYV**SDVGWNDWIVK; also: ** after V3 not explained) [BMP2 C-trunc_2 peptide 746] has measured Flow-through K not below 9. Thanks!
yes (1)

Does the binder Ac-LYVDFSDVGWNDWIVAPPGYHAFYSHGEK [BMP2 Full peptide 747] have recorded Flow-through K that is 9 or more?
yes (1)

# bool: Flow-through K of Ac-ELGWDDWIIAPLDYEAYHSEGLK [BMP12 N-trun_1S peptide 749] >= 9
yes (1)

Answer whether Flow-through K of Ac-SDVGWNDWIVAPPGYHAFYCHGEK [BMP2 N-trun peptide 750] is greater than or equal to 9.
no (0)

Confirm if Flow-through K reported for the binder Ac-VAPPGYHAFYSHGEK [BMP2 N-trunc_2 peptide 745] is 9 or above.
no (0)

Could you tell me if the measured Flow-through K of Ac-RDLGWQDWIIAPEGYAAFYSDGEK [BMP5 peptide 748] reaches 9 or more?
yes (1)
